Sourced from PubChem BioAssay

Kindly state z-score for each of the entries shown.
biological target: NADPH oxidase 5 (Homo sapiens); assay: NOX5-dependent H2O2 signal modulators, primary screen, NOX inhibitor project, cell-based, HEK293-NOX5, Amplex Red fluorescence (AID 1161); conditions: HEK293-NOX5, ionomycin, 45 min, higher = more signal
Answers are plain numbers.

INSERT INTO results (compound, reported_endpoint, recorded_value) VALUES
  ('CC(C)C[C@H]1NC(=O)[C@H](Cc2ccccc2)NC(=O)[C@@]23C(=O)N[C@@H](Cc4ccccc4)C2[C@H](C)[C@@]2(C)O[C@H]2C3/C=C/C/C=C\CNC1=O (stereo partly drawn)', 'z-score', -1.37),
  ('COc1ccc(CCNC(=O)[C@@]2(Sc3ccc(C)cc3)CC(=O)N(Cc3cc(C(F)(F)F)cc(C(F)(F)F)c3)[C@@H]2c2ccc(CO)cc2)cc1', 'z-score', 1.02),
  ('C=C(COC)C(=O)CC[C@@H](OC(C)=O)c1ccc(OCCO)cc1', 'z-score', -0.112);

Please give z-score for each item listed below.
1. CC(C)(C)N1CC=CC23O[C@@H]4/C=C\CCCOC(=O)C4[C@H]2C(=O)N(CCCCCCO)[C@@H]3C1=O (stereo partly drawn)
2. CCCCC(=C=CC[C@@H](O)c1cccc(OCCO)c1)CCO
3. CC(C)(C)OC(=O)CC[C@]1(C(=O)N2CCOCC2)N=C(c2ccc(OCCCO)cc2)O[C@H]1c1ccccc1CN=[N+]=[N-]
4. C[N+](C)(C)CCCCCCNC(=O)[C@@H]1C[C@@H]2C(=O)N[C@@H](Cc3ccccc3)C(=O)N2[C@@H]1c1ccc(O)cc1
5. CCCC[C@H]1OB(O)C[C@H]2C1=C(COC)C[C@H]1C(=O)C=CC(=O)[C@H]12
6. COC(=O)[C@@]1(Cc2ccc(OC)cc2)[C@@H]2[C@@H](CC(=O)[C@H]2CC(=O)C(=O)N2CCCC2)CN1C(=O)c1ccccc1

Result ::
1: 2.04; 2: -1.8; 3: -0.476; 4: 0.0921; 5: -0.477; 6: 0.26
